protocolDescription: Tazarotene solubility in water, glycerin, and 70% glycerin solution
Type: physicochemical
protocolConditions: 70% glycerin solution, aqueous with cosolvent or surfactant or cyclodextrin; 70% Glycerin, 25 °C
measuredParameter: solubility (µg/mL)
Report only the number, with the unit µg/mL understood.

Ask: // fetch solubility given entry CCOC(=O)c1ccc(C#Cc2ccc3c(c2)C(C)(C)CCS3)nc1
Result: 0.68

----------
protocolDescription: Tazarotene solubility in water, glycerin, and 70% glycerin solution
Assay type: physicochemical
protocolConditions: 70% glycerin solution, aqueous with cosolvent or surfactant or cyclodextrin; 70% Glycerin, 40 °C
measuredParameter: solubility
Enter the number, and then the unit.

Ask: // fetch solubility given entry CCOC(=O)c1ccc(C#Cc2ccc3c(c2)C(C)(C)CCS3)nc1
Result: 4.43 µg/mL
